System: C. parvum strain UGA1
Protocol Details: C. parvum growth inhibition assay (Nluc luminescence in HCT-8 cells)
Type: cell-based, Cryptosporidium parvum
Assay Conditions: Cryptosporidium parvum, HCT-8; single point inhibition @ 1 uM; read-out: % inh @ 1 uM C. parvum
Listing of recorded inhibition at 1 µM by entry.

Compound: Cn1cc(Nc2cc3[nH]c(-c4ccnc(C#N)c4)cc3cn2)cn1
Target Of Assay: C. parvum strain UGA1
inhibition at 1 µM: 0 to 33%
--
Compound: Cn1cc(C(=O)Nc2cc3[nH]c(-c4cnc[nH]4)cc3cn2)cn1
Target Of Assay: C. parvum strain UGA1
inhibition at 1 µM: 0 to 33%
--
Compound: O=C(CC1CCOCC1)Nc1cc2[nH]c(-c3ccncc3)cc2cn1
Target Of Assay: C. parvum strain UGA1
inhibition at 1 µM: 0 to 33%
--
Compound: CN(CC(F)(F)F)c1nccc(-c2cc3cnc(NC4CCOCC4)cc3n2C)n1
Target Of Assay: C. parvum strain UGA1
inhibition at 1 µM: 0 to 33%
--
Compound: CC(Oc1nccc(-c2cc3cnc(NC(=O)c4cnn(C)c4)cc3[nH]2)n1)C(F)F (centres unmarked)
Target Of Assay: C. parvum strain UGA1
inhibition at 1 µM: 0 to 33%
--
Compound: c1ccc(Nc2cc3[nH]c(-c4cccnc4)cc3cn2)cc1
Target Of Assay: C. parvum strain UGA1
inhibition at 1 µM: 0 to 33%
--
Compound: COc1nccc(-c2cc3cnc(NC(=O)c4cnn(CC5CCOC5)c4)cc3[nH]2)n1 (stereo in doubt) [Example 156]
Target Of Assay: C. parvum strain UGA1
inhibition at 1 µM: 0 to 33%
--
Compound: O=C(Nc1cc2[nH]c(-c3ccncc3)cc2cn1)[C@@H]1CCOC1
Target Of Assay: C. parvum strain UGA1
inhibition at 1 µM: 0 to 33%
--
Compound: CCOc1nccc(-c2cc3cnc(NC(=O)C4C5CCCCC54)cc3[nH]2)n1 (centres unmarked)
Target Of Assay: C. parvum strain UGA1
inhibition at 1 µM: 0 to 33%
--
Compound: Cn1c(-c2ccnc(NCC(F)(F)F)n2)cc2cnc(NC(=O)c3cnn(C4CCOC4)c3)cc21 (stereo in doubt)
Target Of Assay: C. parvum strain UGA1
inhibition at 1 µM: 67 to 100%
--
Compound: COc1nccc(-c2cc3cnc(NC(=O)[C@H]4C[C@@H](O)C4)cc3[nH]2)n1
Target Of Assay: C. parvum strain UGA1
inhibition at 1 µM: 33 to 66%
--
Compound: Cn1cc(C(=O)Nc2cc3[nH]c(CCCO)cc3cn2)cn1
Target Of Assay: C. parvum strain UGA1
inhibition at 1 µM: 0 to 33%
--
Compound: O=C(Nc1cc2[nH]c(C3CCOCC3)cc2cn1)C1CC1
Target Of Assay: C. parvum strain UGA1
inhibition at 1 µM: 0 to 33%
--
Compound: Cc1cc(Nc2cc3[nH]c(-c4ccncc4)cc3cn2)nn1C(C)C
Target Of Assay: C. parvum strain UGA1
inhibition at 1 µM: 33 to 66%
--
Compound: O=C(Nc1cc2[nH]c(-c3ccncc3)cc2cn1)c1cnn(C2CCOCC2)c1
Target Of Assay: C. parvum strain UGA1
inhibition at 1 µM: 0 to 33%
--
Compound: CC(C)n1cc(C(=O)Nc2cc3c(cn2)cc(-c2ccnc(NCC4CC4)n2)n3C)cn1
Target Of Assay: C. parvum strain UGA1
inhibition at 1 µM: 0 to 33%
--
Compound: Cn1cc(C(=O)Nc2cc3[nH]c(-c4cnco4)cc3cn2)cn1
Target Of Assay: C. parvum strain UGA1
inhibition at 1 µM: 0 to 33%
--
Compound: COc1cc(Nc2cc3[nH]c(-c4ccncc4)cc3cn2)cc(-n2cncn2)c1
Target Of Assay: C. parvum strain UGA1
inhibition at 1 µM: 0 to 33%
--
Compound: Cc1cc(-c2cc3cnc(N[C@@H]4CCOC4)cc3[nH]2)ccn1
Target Of Assay: C. parvum strain UGA1
inhibition at 1 µM: 33 to 66%
--
Compound: COC(=O)Nc1cc2[nH]c(-c3ccnc(C)c3)cc2cn1
Target Of Assay: C. parvum strain UGA1
inhibition at 1 µM: 0 to 33%
--
Compound: CO[C@H]1C[C@H](C(=O)Nc2cc3[nH]c(-c4ccnc(C)c4)cc3cn2)C1
Target Of Assay: C. parvum strain UGA1
inhibition at 1 µM: 0 to 33%
--
Compound: COc1nccc(-c2cc3cnc(NC(=O)c4cnn(CC5CCOC5)c4)cc3[nH]2)n1 (stereo in doubt) [Example 184]
Target Of Assay: C. parvum strain UGA1
inhibition at 1 µM: 0 to 33%
--
Compound: Cc1cc(-c2cc3cnc(NC(=O)CC4COC4)cc3[nH]2)ccn1
Target Of Assay: C. parvum strain UGA1
inhibition at 1 µM: 0 to 33%
--
Compound: Cc1cc(-c2cc3cnc(NC(=O)c4cnn(C5CCCC5)c4)cc3[nH]2)ccn1
Target Of Assay: C. parvum strain UGA1
inhibition at 1 µM: 67 to 100%
--
Compound: CC(C)C(=O)Nc1cc2[nH]c(-c3ccncc3)cc2cn1
Target Of Assay: C. parvum strain UGA1
inhibition at 1 µM: 33 to 66%
--
Compound: CSc1ccc(Nc2cc3c(cn2)cc(-c2cnn(C)c2)n3C)cc1
Target Of Assay: C. parvum strain UGA1
inhibition at 1 µM: 0 to 33%
--
Compound: CC(C)CC(=O)Nc1cc2[nH]c(-c3ccncc3)cc2cn1
Target Of Assay: C. parvum strain UGA1
inhibition at 1 µM: 0 to 33%
--
Compound: CC(C)n1cc(C(=O)Nc2cc3[nH]c(-c4ccnc(OCC(F)F)n4)cc3cn2)cn1
Target Of Assay: C. parvum strain UGA1
inhibition at 1 µM: 0 to 33%
--
Compound: CO[C@H]1C[C@@H](C(=O)Nc2cc3[nH]c(-c4ccnc(C)c4)cc3cn2)C1
Target Of Assay: C. parvum strain UGA1
inhibition at 1 µM: 0 to 33%
--
Compound: Cn1cc(C(=O)Nc2cc3c(cn2)cc(-c2ccnc(NCC4CC4)n2)n3C)cn1
Target Of Assay: C. parvum strain UGA1
inhibition at 1 µM: 0 to 33%
--
Compound: Cc1cc(-c2cc3cnc(NC(=O)[C@H]4C[C@H](O)C4)cc3[nH]2)ccn1
Target Of Assay: C. parvum strain UGA1
inhibition at 1 µM: 33 to 66%
--
Compound: COc1nccc(-c2cc3cnc(NC(=O)[C@H]4C[C@H](O)C4)cc3[nH]2)n1
Target Of Assay: C. parvum strain UGA1
inhibition at 1 µM: 0 to 33%
--
Compound: CC(C)n1cc(C(=O)Nc2cc3[nH]c(-c4ccnc(OCCF)n4)cc3cn2)cn1
Target Of Assay: C. parvum strain UGA1
inhibition at 1 µM: 0 to 33%
--
Compound: Cc1nccc(-c2cc3cnc(NC(=O)c4cnn(C)c4)cc3[nH]2)n1
Target Of Assay: C. parvum strain UGA1
inhibition at 1 µM: 0 to 33%
--
Compound: N#Cc1cc2cnc(Nc3cnn(C4CCOCC4)c3)cc2[nH]1
Target Of Assay: C. parvum strain UGA1
inhibition at 1 µM: 0 to 33%
